Every entry's value here was drawn from patent US20200405852A1.

For each entry below, report its IC50 of classical complement pathway inhibition (commercial CP activation assay) value.
- EXPERIMENTAL TARGET: T1, activated human complement C1s (human, UniProt P09871 16-688)
- T1 sequence: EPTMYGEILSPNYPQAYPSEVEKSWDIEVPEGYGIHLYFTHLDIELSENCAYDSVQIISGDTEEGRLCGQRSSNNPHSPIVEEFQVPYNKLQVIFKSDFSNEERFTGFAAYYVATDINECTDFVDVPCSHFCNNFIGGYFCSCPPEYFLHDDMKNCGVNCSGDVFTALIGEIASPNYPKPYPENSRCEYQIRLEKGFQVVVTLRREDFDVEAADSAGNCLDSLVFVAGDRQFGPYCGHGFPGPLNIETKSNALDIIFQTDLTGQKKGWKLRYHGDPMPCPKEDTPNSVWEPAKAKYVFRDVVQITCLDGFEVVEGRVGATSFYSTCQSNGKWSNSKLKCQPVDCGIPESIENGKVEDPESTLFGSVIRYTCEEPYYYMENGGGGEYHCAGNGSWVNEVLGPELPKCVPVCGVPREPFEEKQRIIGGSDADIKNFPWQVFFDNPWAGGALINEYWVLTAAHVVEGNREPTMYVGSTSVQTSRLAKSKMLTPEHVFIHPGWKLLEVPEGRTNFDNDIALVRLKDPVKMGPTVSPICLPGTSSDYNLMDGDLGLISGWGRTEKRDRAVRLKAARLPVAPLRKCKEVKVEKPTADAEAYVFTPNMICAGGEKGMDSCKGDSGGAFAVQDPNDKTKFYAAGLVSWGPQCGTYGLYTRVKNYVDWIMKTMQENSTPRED
- PROTOCOL TEXT: cell-based or functional assay
Express your answer in nM, writing the number without its unit.

Tell me the measured IC50 of classical complement pathway inhibition (commercial CP activation assay) of humanized TNT005 variant VH variant 2+Vk variant 2 (antibody, V domains shown, also called VH variant 2 + VL variant 2) VH: EVQLVQSGAEVKKPGASVKLSCTASGFNIKDDYIHWVKQAPGQGLEWIGRIDPADGHTKYAPKFQVKATITADTSTNTAYLELSSLRSEDTAVYYCARYGYGREVFDYWGQGTTVTVSS VL: DIVLTQSPDSLAVSLGERATISCKASQSVDYDGDSYMNWYQQKPGQPPKILIYDASNLESGIPARFSGSGSGTDFTLTISSLEPEDFAIYYCQQSNEDPWTFGGGTKVEIK , please.
1.26

Give the measured IC50 of classical complement pathway inhibition (commercial CP activation assay) of humanized TNT005 variant VH variant 2+Vk variant 1 (antibody, V domains shown, also called VH variant 2 + VL variant 1) VH: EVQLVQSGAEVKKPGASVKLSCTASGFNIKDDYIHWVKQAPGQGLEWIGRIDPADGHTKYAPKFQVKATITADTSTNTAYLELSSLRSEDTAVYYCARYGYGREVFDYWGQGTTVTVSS VL: DIVLTQSPDSLAVSLGERATISCKASQSVDYDGDSYMNWYQQKTGQPPKILIYDASNLESGIPARFSGSGSGTDFTLTISSLEEEDFAIYYCQQSNEDPWTFGGGTKVEIK .
1.23

State the recorded IC50 of classical complement pathway inhibition (commercial CP activation assay) for this entry: humanized TNT005 variant VH variant 1+Vk variant 1 (antibody, V domains shown, also called VH variant 1 + VL variant 1) VH: EVQLVQSGAELKKPGASVKLSCTASGFNIKDDYIHWVKQAPGQGLEWIGRIDPADGHTKYAPKFQVKATITADTSTNTAYLQLSSLTSEDTAVYYCARYGYGREVFDYWGQGTTVTVSS VL: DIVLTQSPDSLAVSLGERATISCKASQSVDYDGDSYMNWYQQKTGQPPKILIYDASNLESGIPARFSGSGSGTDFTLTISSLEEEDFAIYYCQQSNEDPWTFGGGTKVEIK
1.2
